# System: MCF-7 breast adenocarcinoma cells
# EXPERIMENTAL_DETAILS: MTS cytotoxicity assay, MCF-7
# Format: cell-based, human
# MEASUREMENT_CONDITIONS: Homo sapiens, MCF7; MCF-7, 400 μM, 48 h; read-out: cell viability
ASSAY_ENDPOINT: viability at 400 µM (%)
Give just the number in %; leave the unit off.

molecule CCc1cc(C(=O)OC)c2ccc(-c3ccc(F)cc3)nn12 , viability at 400 µM observed: 89.7

molecule CCc1cc(C(=O)OC)c2ccc(-c3ccc(Cl)cc3)nn12 , viability at 400 µM observed: 88.5

molecule CCOC(=O)c1cc(CC)n2nc(-c3ccc(Cl)cc3)ccc12 , viability at 400 µM observed: 94

molecule CCOC(=O)c1cc(CC)n2nc(-c3ccc(F)cc3)ccc12 , viability at 400 µM observed: 73.1

molecule CCC(C(=O)O)n1nc(-c2ccccc2)ccc1=O (centres unmarked) , viability at 400 µM observed: 94

Hello, the source for this data is paper PMC10380841, in case you need it.
